B1: Pistol ribozyme (parent)
chain: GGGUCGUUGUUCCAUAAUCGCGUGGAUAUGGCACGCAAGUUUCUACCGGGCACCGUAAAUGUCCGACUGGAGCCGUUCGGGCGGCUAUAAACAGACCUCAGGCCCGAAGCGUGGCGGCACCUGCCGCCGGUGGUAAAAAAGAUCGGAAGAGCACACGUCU

- Variants of: B1
- test name: aptazyme ON/OFF ratio, guanine; higher = stronger switching; co-transcriptional cleavage with and without guanine
measured parameter: aptazyme ON/OFF ratio

• U7A G9U U10G U11C C12U C13A = 1.29
• U7C U8A G9U U10G U11G C12G C13U = 1.14
• G9U U10A U11A C12U C13A = 1.09
• U7G U8A U10C U11C C12G C13G = 1.06
• G9U U11C C12U C13G = 1.23
• U7C U8G G9C U11A C12G = 1.16
• U7C U8G U10C C12G = 2.01
• U7A U8A G9A U11A C12A = 1.26
• G9U U10G U11G C12A C13A = 1.28
• U7C U11C C12A C13U = 1.25
• U7G G9U U11A C12G C13U = 1.36
• U7A G9C U10G C12U = 1.2
• U7G U8G U11C C12U C13A = 1.38
• U7C G9U U10G U11G C12U C13A = 1.07
• U8C G9U U10G U11C C12U C13G = 1.11
• G9A U10A U11A C12G = 1.83
• U7A U8G G9U U10A U11G C12U = 1.17
• U7G U8C G9A U10G C13U = 1.26
• U7C U8G G9A U10A U11C C13G = 1.02
• U7G G9U U10C U11A C12U C13G = 1.23
• U7G U8C G9U U10A U11A C12U C13A = 1.23
• U7A G9A U10C U11C C12G C13G = 1.09
